Just for reference, patent US10752588B2 is where these values come from.

target: human D2R/β-arrestin (Homo sapiens (Human), UniProt P14416); test: cell-based; details: cAMP Antagonist, CHO-K1 cell line expressing human D2R/β-arrestin; quinpirole used as agonist
Sequence (P14416 whole entry): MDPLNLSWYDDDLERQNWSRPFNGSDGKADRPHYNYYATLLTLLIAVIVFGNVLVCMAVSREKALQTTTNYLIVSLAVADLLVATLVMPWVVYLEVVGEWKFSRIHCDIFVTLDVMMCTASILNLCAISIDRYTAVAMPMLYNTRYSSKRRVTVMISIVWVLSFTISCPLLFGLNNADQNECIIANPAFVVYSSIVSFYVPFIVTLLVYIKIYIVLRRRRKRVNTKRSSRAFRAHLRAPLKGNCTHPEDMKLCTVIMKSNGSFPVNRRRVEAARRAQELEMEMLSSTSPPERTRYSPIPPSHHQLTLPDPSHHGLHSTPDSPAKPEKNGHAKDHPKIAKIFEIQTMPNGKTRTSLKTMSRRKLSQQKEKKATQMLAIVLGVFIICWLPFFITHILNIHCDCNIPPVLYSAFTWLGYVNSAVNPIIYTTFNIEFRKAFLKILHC
Readout label: IC50

compound="O=C(NC(c1ccc2c(c1)OC(F)(F)O2)c1ccccn1)C1CCN(CCOc2ccc(F)cc2F)CC1 (single isomer, unassigned) [Compound 130a]" value_reported="100 to 1000 nM"
compound="COc1cccc(C(NC(=O)C2CCN(CCOc3ccc(F)cc3F)CC2)c2ccccn2)c1 (stereo not shown) [Compound 145]" value_reported="1000 to 10000 nM"
compound="O=C(NC(c1ccc(Cl)cc1)c1ccccn1)C1CCN(CCCOc2ccccc2)CC1 (stereo not shown)" value_reported="100 to 1000 nM"

Query: Could you tell me which IC50 is on file for O=C(NC(c1ccc2c(c1)OCO2)c1ccccn1)C1CCN(CCOc2ccccc2F)CC1 (stereo not shown) ?
Reply: 100 to 1000 nM

Query: Follow-up item: O=C(NC(c1ccc(Cl)cc1)c1ccccn1)C1CCN(CCOc2ccc3cccnc3c2)CC1 (stereo not shown)
Reply: > 30000 nM

Query: Follow-up item: O=C(NC(c1cccc(OC(F)(F)F)c1)c1ccccn1)C1CCN(CCOc2ccccc2F)CC1 (single isomer, unassigned) [Compound 93a]
Reply: 100 to 1000 nM

Query: Follow-up item: O=C(NC(c1ccc(F)cc1)c1ccccc1F)C1CCN(CCOc2ccccc2)CC1 (stereo not shown)
Reply: 1000 to 10000 nM

* * *

biological target: human D2R/β-arrestin (Homo sapiens (Human), UniProt P14416); assay: β-Arrestin agonist assay (PathHunter); format: cell-based; details: CHO-K1 cell line expressing human D2R/β-arrestin
Readout label: EC50

// known answers, use as guide
compound="CC1(C(=O)NC(c2ccc(F)cc2)c2ccccn2)CCN(CCOc2ccccc2)CC1 (single isomer, unassigned) [Compound 69a]" target_or_system="human D2R/β-arrestin (Homo sapiens (Human), UniProt P14416)" value_reported="0.1 to 1 µM"
compound=O=C(NC(c1ccccc1F)c1ccccc1F)C1CCN(CCOc2ccccc2Cl)CC1 target_or_system="human D2R/β-arrestin (Homo sapiens (Human), UniProt P14416)" value_reported="> 30 µM"
compound="O=C(NC(c1ccc(Cl)cc1)c1ccccn1)C1CCN(CCn2ccc(=O)cc2)CC1 (single isomer, unassigned) [Compound 11b]" target_or_system="human D2R/β-arrestin (Homo sapiens (Human), UniProt P14416)" value_reported="> 30 µM"
compound="O=C(NC(c1ccc(Cl)cc1)c1ccccn1)C1CCN(CCOc2ccccc2)CC1 (single isomer, unassigned) [Compound 63a]" target_or_system="human D2R/β-arrestin (Homo sapiens (Human), UniProt P14416)" value_reported="> 30 µM"
compound="CC1(C(=O)NC(c2ccc(Cl)cc2)c2ccccn2)CCN(CCOc2ccccc2)CC1 (centres unmarked) [Compound 144]" target_or_system="human D2R/β-arrestin (Homo sapiens (Human), UniProt P14416)" value_reported="< 0.1 µM"
compound="COc1cccc(C(NC(=O)C2CCN(CCOc3ccc4ncsc4c3)CC2)c2ccccn2)c1 (centres unmarked)" target_or_system="human D2R/β-arrestin (Homo sapiens (Human), UniProt P14416)" value_reported="> 30 µM"
compound=COc1ccccc1OCCN1CCC(C(=O)NCc2nccc3ccccc23)CC1 target_or_system="human D2R/β-arrestin (Homo sapiens (Human), UniProt P14416)" value_reported="> 30 µM"
compound="COc1cccc(C(NC(=O)C2CCN(CCOc3ccccc3)CC2)c2ccccn2)c1 (centres unmarked) [Compound 35a]" target_or_system="human D2R/β-arrestin (Homo sapiens (Human), UniProt P14416)" value_reported="> 30 µM"
compound="COc1cccc(OCCN2CCC(C(=O)NC(c3ccc(Cl)cc3)c3ccccn3)CC2)c1 (centres unmarked)" target_or_system="human D2R/β-arrestin (Homo sapiens (Human), UniProt P14416)" value_reported="> 30 µM"
compound="O=C(NC(c1cccc(OC(F)(F)F)c1)c1ccccn1)C1CCN(CCOc2ccccc2F)CC1 (single isomer, unassigned) [Compound 93a]" target_or_system="human D2R/β-arrestin (Homo sapiens (Human), UniProt P14416)" value_reported="> 30 µM"

Query: API: value(readout= EC50, system= human D2R/β-arrestin (Homo sapiens (Human), UniProt P14416), query= CN(CC1CCN(CCOc2ccccc2)CC1)C(c1ccc(F)cc1)c1ccccn1 (single isomer, unassigned) [Compound 74a] )
Reply: > 30 µM

Query: Follow-up item: Fc1ccccc1OCCN1CCC(CN(CC(F)(F)F)C(c2ccc(Cl)cc2)c2ccccn2)CC1 (single isomer, unassigned) [Compound 136a]
Reply: 0.1 to 1 µM

Query: Follow-up item: Fc1ccccc1OCCN1CCC(CNC(c2ccc3c(c2)OCO3)c2ccccn2)CC1 (single isomer, unassigned) [Compound 139a]
Reply: > 30 µM

Query: Follow-up item: O=C(NC(c1ccc2c(c1)OC(F)(F)O2)c1ccccn1)C1CCN(CCOc2ccccc2)CC1 (single isomer, unassigned) [Compound 119a]
Reply: > 30 µM
